Test: HepG2 liver cancer cell viability effects, profiling panel, resazurin fluorescence, 24 h, PK04 Diversity Set (AID 1172); also: test concentration not given here
Details: higher = more signal
compounds and their reported z-score

Below: 5 compounds and their reported z-score.
compound: C=CCOC(=O)[C@@H]1[C@H]2C(=O)O[C@H](c3ccccc3)[C@H](c3ccccc3)N2[C@H](c2ccc(OCCOC(=O)[C@H]3C[C@H]4C(=O)NCC(=O)N4[C@H]3c3ccc(O)cc3)cc2)[C@@]12C(=O)Nc1ccc(I)cc12
result: -0.675

compound: COCC(=C=CC[C@@H](O)c1ccc(OCCO)cc1)C[C@@H](O)COCc1ccccc1
result: 0.948

compound: COc1ccc([Si](C)(C)[C@H]2[C@H](CCO)O[C@@]3(C(=O)N(Cc4ccc(N5CCOC5=O)cc4)c4ccccc43)[C@@H]2C)cc1
result: -0.667

compound: C=CCC(OC(C)=O)[C@@H]1[C@@H](N(Cc2cccc3ccccc23)C(=O)c2ccc(-c3ccccc3)cc2)c2cc(OCCCO)ccc2N1C(=O)c1ccc2ccccc2n1 (some centres undefined)
result: -0.0049

compound: C=C(C(=O)CC[C@@H](OC(C)=O)c1cccc(OCCO)c1)C(C)C
result: -1.1

Consider C=CCC(OC(C)=O)[C@@H]1[C@@H](N(Cc2ccc(-c3cccc(C(F)(F)F)c3)o2)C(=O)c2cccc3ccccc23)c2cc(OCCCO)ccc2N1C(=O)c1ccc2ccccc2c1 (some centres undefined) . Its measured z-score is -0.0598

For "COC(=O)[C@@]1(Cc2ccc(F)cc2)[C@H]2c3cc(C(=O)N(C)C)n(CCn4cc([N+](=O)[O-])nc4C)c3C[C@H]2CN1C(=O)c1ccccc1" the compound record lists z-score as -1.02

The compound identified as "[N-]=[N+]=NCc1ccccc1C[C@]1(C(=O)N2CCCCC2)N=C(c2ccc(OCCCO)cc2)O[C@H]1c1ccccc1" registered its z-score at 0.116

Consider "CC(C)C(=C=CC[C@@H](O)c1cccc(OCCO)c1)CCO" . Its measured z-score is 0.545

Entry under test: "CCCC[C@H]1OB(O)C[C@H]2C1=C(C)C[C@H]1C(=O)C=CC(=O)[C@H]12" . Its z-score was -0.559

For reference, reported z-score for C=CCC(OC(C)=O)[C@@H]1[C@@H](N(Cc2ccc(-c3cccc(C(F)(F)F)c3)o2)C(=O)Cc2ccc(F)cc2)c2cc(OCCCO)ccc2N1C(=O)c1ccc2ccccc2c1 (some centres undefined) stands at 0.589

Entry CCCCN1CC=CC23O[C@@H]4C=CCOC(=O)[C@@H]4[C@H]2C(=O)N(CCO)[C@@H]3C1=O (some centres undefined) ; z-score = -0.394

// z-score lookup, compound = "CCCC[C@H]1OB(O)C[C@H]2C1=C(COC)C[C@H]1C(=O)C=CC(=O)[C@H]12" , result: -0.796

response.value for COc1ccc(NN2C(C(O)c3ccc(OC)cc3)C=CC3C(=O)N(C4CCCCC4)C(=O)C32)cc1 (centres undefined) (field: z-score) = 1.52

Notebook: "CC(C)(C)OC(=O)CC[C@]1(C(=O)N2CCOCC2)N=C(c2ccc(OCCCO)cc2)O[C@H]1c1ccccc1CN=[N+]=[N-]" , z-score read as 0.125

Field z-score (entry "COC(=O)[C@@H]1N=C(c2ccc(OCCCO)cc2)O[C@@H]1c1ccccc1CN=[N+]=[N-]" ) reads 1.25

Documented z-score of "COc1ccc(CCNC(=O)[C@@H]2c3ccccc3C(=O)N(CC34CC5CC(CC(C5)C3)C4)[C@H]2c2ccc(CO)cc2)cc1" : 0.556

Noted for "COCCOC(=O)N1C(=O)[C@@]2(c3cc(C#CC4(O)CCCCCC4)ccc31)[C@H](C(=O)N1CCc3cc(OC)c(OC)cc3C1)[C@H]1C(=O)O[C@H](c3ccccc3)[C@H](c3ccccc3)N1[C@@H]2c1ccc(O)cc1" : its z-score reads -0.511

z-score recorded for this compound, C=CCC(OC(C)=O)[C@@H]1[C@@H](N(Cc2ccc(-c3ccccc3)cc2)C(=O)c2ccc(-c3ccccc3)cc2)c2cc(OCCCO)ccc2N1C(=O)c1ccc2ccccc2n1 (some centres undefined) , is 1.16

Looking up "CC(C)CNC(=O)[C@@]1(C)c2ccccc2C(=O)N(Cc2cc(F)cc(C(F)(F)F)c2)[C@H]1c1ccc(CO)cc1" , I found its z-score recorded as -0.201

// z-score lookup, compound = "CO[C@H]1O[C@H](CO)[C@@H](OC(=O)Nc2ccc(C(F)(F)F)cc2)[C@H](OC(=O)Nc2ccccc2-c2ccccc2)[C@H]1OC(=O)Nc1ccccc1-c1ccccc1" , result: -5.27
